test system: 266295-075-R-J1-PDC spheroid viability; assay: Anticancer human tumor 266295-075-R-J1-PDC patient-derived head and neck squamous carcinoma cell line growth inhibition [POLQ]; details: second compound 3.16 µM; first compound 0.01 µM; active compounds read low; spheroids with HUVEC and MSC
measured.parameter: viability, T/C (%)

molecule	number
C=CCn1c(=O)c2cnc(Nc3ccc(N4CCN(C)CC4)cc3)nc2n1-c1cccc(C(C)(C)O)n1 + COC1C(OC(N)=O)C(O)C(Oc2ccc3c(O)c(NC(=O)c4ccc(O)c(CC=C(C)C)c4)c(=O)oc3c2C)OC1(C)C	90.8
Cn1ncnc1[C@H]1c2n[nH]c(=O)c3cc(F)cc(c23)N[C@@H]1c1ccc(F)cc1 + Cc1cccc(N(C)C(=O)C2C(O)CCN2c2nc(C)cc(C(F)(F)F)c2C#N)c1	118
Cn1ncnc1[C@H]1c2n[nH]c(=O)c3cc(F)cc(c23)N[C@@H]1c1ccc(F)cc1 + COC1C(OC(N)=O)C(O)C(Oc2ccc3c(O)c(NC(=O)c4ccc(O)c(CC=C(C)C)c4)c(=O)oc3c2C)OC1(C)C	84.5
CC[C@@]1(O)C(=O)OCc2c1cc1n(c2=O)Cc2cc3c(CN(C)C)c(O)ccc3nc2-1 + COC1C(OC(N)=O)C(O)C(Oc2ccc3c(O)c(NC(=O)c4ccc(O)c(CC=C(C)C)c4)c(=O)oc3c2C)OC1(C)C	91.2
CCc1c2c(nc3ccc(O)cc13)-c1cc3c(c(=O)n1C2)COC(=O)[C@]3(O)CC + COC1C(OC(N)=O)C(O)C(Oc2ccc3c(O)c(NC(=O)c4ccc(O)c(CC=C(C)C)c4)c(=O)oc3c2C)OC1(C)C	90.6
CC[C@@]1(O)C(=O)OCc2c1cc1n(c2=O)Cc2cc3c(CN(C)C)c(O)ccc3nc2-1 + Cc1cccc(N(C)C(=O)C2C(O)CCN2c2nc(C)cc(C(F)(F)F)c2C#N)c1	87.2
COc1cccc(OCCCN)c1-c1cc(Nc2cnc(C#N)cn2)n[nH]1 + Cc1cccc(N(C)C(=O)C2C(O)CCN2c2nc(C)cc(C(F)(F)F)c2C#N)c1	101
CCc1c2c(nc3ccc(O)cc13)-c1cc3c(c(=O)n1C2)COC(=O)[C@]3(O)CC + Nc1ccc(C#CCN(C(=O)Cc2ncc(C(F)(F)F)cc2C(F)(F)F)c2ccc(F)cc2)nn1	96.8
CC[C@@]1(O)C(=O)OCc2c1cc1n(c2=O)Cc2cc3c(CN(C)C)c(O)ccc3nc2-1 + Nc1ccc(C#CCN(C(=O)Cc2ncc(C(F)(F)F)cc2C(F)(F)F)c2ccc(F)cc2)nn1	83.2
C=CCn1c(=O)c2cnc(Nc3ccc(N4CCN(C)CC4)cc3)nc2n1-c1cccc(C(C)(C)O)n1 + Cc1cccc(N(C)C(=O)C2C(O)CCN2c2nc(C)cc(C(F)(F)F)c2C#N)c1	93.6

###

test system: 266295-075-R-J1-PDC spheroid viability; experiment: Anticancer human tumor 266295-075-R-J1-PDC cell line growth inhibition [POLQ]; details: second compound 0.0316 µM; first compound 10 µM; spheroids with HUVEC and MSC; active = viability on the fitted dose curve at most 10% of control; inactive = the rest;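 further: spheroids exposed to compounds for seven days before readout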
Classes used: active, inactive

compound	label.value
COc1cc2cc(C(=O)CCC(=O)O)sc2cc1OC + COC1C(OC(N)=O)C(O)C(Oc2ccc3c(O)c(NC(=O)c4ccc(O)c(CC=C(C)C)c4)c(=O)oc3c2C)OC1(C)C	inactive
COc1ccc([C@@H](O)c2cc(-c3ncnc4cc(N5CCOCC5)ccc34)c(F)cc2Cl)nn1 + Nc1ccc(C#CCN(C(=O)Cc2ncc(C(F)(F)F)cc2C(F)(F)F)c2ccc(F)cc2)nn1	inactive
COc1cccc2c1C(=O)c1c(O)c3c(c(O)c1C2=O)CC(O)(C(=O)CO)CC3OC1CC(N)C(O)C(C)O1 (stereo not drawn) + Nc1ccc(C#CCN(C(=O)Cc2ncc(C(F)(F)F)cc2C(F)(F)F)c2ccc(F)cc2)nn1	active
